// provenance: paper PMC3660597

- Substrate: Nc1nc2nc[nH]c2c(=O)[nH]1
- PROTOCOL_NOTES: purified protein
- Type: biochemical, Zymomonas mobilis
- TEST_PARAMETERS: 15 µM E. coli tRNA(Tyr), 200 mM HEPES pH 7.3, 20 mM MgCl2, 37°C, labelled compound
MEASUREMENT_TYPE: Km (µM)
Provide the reading as a plain figure in µM.

Z. mobilis Tgt ("wild type" Tgt = Tgt(Tyr106Phe)) (Zymomonas mobilis subsp. mobilis ZM4 = ATCC 31821; Y106F) (protein, recombinant from pET9d-ZM-Y106F in E. coli BL21(DE3)/pLysS, purified; homodimer; all variants including "wild type" carry Tyr106Phe) VEATAQETDRPRFSFSIAAREGKARTGTIEMKRGVIRTPAFMPVGTAATVKALKPETVRATGADIILGNTYHLMLRPGAERIAKLGGLHSFMGWDRPILTDSGGFQVMSLSSLTKQSEEGVTFKSHLDGSRHMLSPERSIEIQHLLGSDIVMAFDECTPYPATPSRAASSMERSMRWAKRSRDAFDSRKEQAENAALFGIQQGSVFENLRQQSADALAEIGFDGYAVGGLAVGEGQDEMFRVLDFSVPMLPDDKPHYLMGVGKPDDIVGAVERGIDMFDCVLPTRSGRNGQAFTWDGPINIRNARFSEDLTPLDSECHCAVCQKWSRAYIHHLIRAGEILGAMLMTEHNIAFYQQLMQKIRDSISEGRFSQFAQDFRARYFARNS
1.2
Z. mobilis Tgt ("wild type" Tgt = Tgt(Tyr106Phe)) (Zymomonas mobilis subsp. mobilis ZM4 = ATCC 31821; C158V/V233G/Y106F) (protein, recombinant from pET9d-ZM-Y106F in E. coli BL21(DE3)/pLysS, purified; homodimer; all variants including "wild type" carry Tyr106Phe) VEATAQETDRPRFSFSIAAREGKARTGTIEMKRGVIRTPAFMPVGTAATVKALKPETVRATGADIILGNTYHLMLRPGAERIAKLGGLHSFMGWDRPILTDSGGFQVMSLSSLTKQSEEGVTFKSHLDGSRHMLSPERSIEIQHLLGSDIVMAFDEVTPYPATPSRAASSMERSMRWAKRSRDAFDSRKEQAENAALFGIQQGSVFENLRQQSADALAEIGFDGYAVGGLAGGEGQDEMFRVLDFSVPMLPDDKPHYLMGVGKPDDIVGAVERGIDMFDCVLPTRSGRNGQAFTWDGPINIRNARFSEDLTPLDSECHCAVCQKWSRAYIHHLIRAGEILGAMLMTEHNIAFYQQLMQKIRDSISEGRFSQFAQDFRARYFARNS
2.7

So what does the record say about Km for Z. mobilis Tgt ("wild type" Tgt = Tgt(Tyr106Phe)) (Zymomonas mobilis subsp. mobilis ZM4 = ATCC 31821; C158V/Y106F) (protein, recombinant from pET9d-ZM-Y106F in E. coli BL21(DE3)/pLysS, purified; homodimer; all variants including "wild type" carry Tyr106Phe) VEATAQETDRPRFSFSIAAREGKARTGTIEMKRGVIRTPAFMPVGTAATVKALKPETVRATGADIILGNTYHLMLRPGAERIAKLGGLHSFMGWDRPILTDSGGFQVMSLSSLTKQSEEGVTFKSHLDGSRHMLSPERSIEIQHLLGSDIVMAFDEVTPYPATPSRAASSMERSMRWAKRSRDAFDSRKEQAENAALFGIQQGSVFENLRQQSADALAEIGFDGYAVGGLAVGEGQDEMFRVLDFSVPMLPDDKPHYLMGVGKPDDIVGAVERGIDMFDCVLPTRSGRNGQAFTWDGPINIRNARFSEDLTPLDSECHCAVCQKWSRAYIHHLIRAGEILGAMLMTEHNIAFYQQLMQKIRDSISEGRFSQFAQDFRARYFARNS ?
1.4
